Several publications report IC50 on Serine/threonine-protein kinase PLK1 (Homo sapiens, UniProt P53350); those values are gathered here.
Sequence (P53350 whole entry): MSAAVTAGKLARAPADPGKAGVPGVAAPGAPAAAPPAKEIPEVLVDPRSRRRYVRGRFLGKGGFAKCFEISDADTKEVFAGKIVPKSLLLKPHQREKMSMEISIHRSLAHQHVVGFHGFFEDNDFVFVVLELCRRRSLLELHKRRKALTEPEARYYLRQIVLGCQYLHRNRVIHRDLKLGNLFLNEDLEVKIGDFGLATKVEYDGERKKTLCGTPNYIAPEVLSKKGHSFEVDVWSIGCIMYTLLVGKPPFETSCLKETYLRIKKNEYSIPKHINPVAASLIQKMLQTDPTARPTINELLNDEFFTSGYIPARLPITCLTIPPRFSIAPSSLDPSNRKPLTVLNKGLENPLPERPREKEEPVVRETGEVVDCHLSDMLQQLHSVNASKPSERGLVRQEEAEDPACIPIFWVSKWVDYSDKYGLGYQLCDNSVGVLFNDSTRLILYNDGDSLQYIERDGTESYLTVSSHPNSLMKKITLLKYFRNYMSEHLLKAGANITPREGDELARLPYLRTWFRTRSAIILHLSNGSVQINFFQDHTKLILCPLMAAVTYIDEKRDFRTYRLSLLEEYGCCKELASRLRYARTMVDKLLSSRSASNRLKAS
The threshold is 0.3 µM. Values of IC50 beneath it are tagged 1; values meeting or exceeding it are tagged -1.

Task: Given `CCc1cccc(CC)c1NC(=O)c1nn(C)c2c1CCc1cnc(Nc3ccc(C(N)=O)cc3OC(F)(F)F)nc1-2` , is recorded IC50 strictly lower than 0.3 µM?
Result: -1

Task: Given `O=C1NCc2c1c1c3cc(O)ccc3[nH]c1c1[nH]c3ccccc3c21` , is recorded IC50 strictly lower than 0.3 µM?
Result: -1

Task: Given `O=C1Nc2ccc(F)cc2/C1=C/c1ccc2cn[nH]c2c1` , is recorded IC50 strictly lower than 0.3 µM?
Result: -1

Task: Given `CN1CCN(C[C@@H](NC(=O)C[C@H]2CNC(=O)c3cc(-c4cccc(Cl)c4)cn32)C2CCCCC2)CC1` , is recorded IC50 strictly lower than 0.3 µM?
Result: -1

Task: Given `C#CNC(=O)/C(C#N)=c1\s/c(=C/Nc2ccc(OCCN(C)C)cc2)c(=O)n1CC` , is recorded IC50 strictly lower than 0.3 µM?
Result: 1

###

Several publications report log10(IC50) on Serine/threonine-protein kinase PLK1 (Homo sapiens, UniProt P53350); those values are gathered here.
Base-10 log of IC50, unit µM.

Task: For the molecule shown here, `CCCCCCCCSc1ccc(C(=O)Nc2ccc(C)cc2C(=O)O)cc1` , give the reported log10(IC50).
Result: 1.43

Task: For the molecule shown here, `CCCCCCCCNc1ccc(C(=O)Nc2cc(C)ccc2C(=O)O)cc1` , give the reported log10(IC50).
Result: 1.43

Task: For the molecule shown here, `C[N+](C)(C)[C@H](Cc1cc(I)c(O)c(I)c1)C(=O)[O-]` , give the reported log10(IC50).
Result: 1.33

Task: For the molecule shown here, `Nc1ccccc1NC(=O)/C=C/c1ccc(-c2ccc3ncnc(Nc4ccc(OCc5cccc(F)c5)c(Cl)c4)c3c2)o1` , give the reported log10(IC50).
Result: 0.93

Task: For the molecule shown here, `Cc1cc([C@@H](C)Nc2ccccc2C(=O)O)c2nc(N3CCOCC3)cc(=O)n2c1` , give the reported log10(IC50).
Result: 1.92

Task: For the molecule shown here, `CNC(=O)c1ccc(OC)cc1` , give the reported log10(IC50).
Result: 2.10

Task: For the molecule shown here, `Cc1nc(-c2ccccc2)n2nc(Nc3ccccc3)ncc12` , give the reported log10(IC50).
Result: 0.08

###

Several publications report IC50 on Serine/threonine-protein kinase PLK1 (Homo sapiens); those values are gathered here.
Give a bare numeral; the unit µM is implied.

Task: What measured IC50 is associated with `COC(=O)c1cc2c(Nc3ccccc3)[nH]nc2s1` on Serine/threonine-protein kinase PLK1 (Homo sapiens)?
Result: 21

Task: What measured IC50 is associated with `COc1cc2ncn(-c3cc(OCc4ccccc4C(F)(F)F)c(C#N)s3)c2cc1OC` on Serine/threonine-protein kinase PLK1 (Homo sapiens)?
Result: 0.7

Task: What measured IC50 is associated with `CN1CCN(c2ccc(OC(F)(F)F)c(Nc3nccc(-c4cc(C(N)=O)cn4CC(F)(F)F)n3)c2)CC1` on Serine/threonine-protein kinase PLK1 (Homo sapiens)?
Result: 0.018

Task: What measured IC50 is associated with `CC(C)(O)c1cccc(-n2cc(F)c3cnc(Nc4ccc(N5C[C@H]6C[C@@H]5CN6)cc4)nc32)n1` on Serine/threonine-protein kinase PLK1 (Homo sapiens)?
Result: 0.019

// next item, IC50 requested
Task: What measured IC50 is associated with `CCCCCCCCCc1ccc(C(=O)Nc2ccc(C)cc2C(=O)O)cc1` on Serine/threonine-protein kinase PLK1 (Homo sapiens)?
Result: 33.8
